src = PubChem BioAssay AID1508611

measurementTarget: Glucose-dependent insulinotropic receptor (Homo sapiens)
assayRemarks: off-target GPR119 activation – cell-based, PathHunter beta-arrestin, luminescence, triplicate, counter-screen for GPR151 activator project (AID 1508611);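 also: counterscreen on off-target GPR119 to flag nonselective hits from the GPR151 activator screen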
reportedConditions: GPR119 PathHunter beta-arrestin cells, 90 min, at 11.2 µM, 0 = compound-well median, 100 = enzyme-acceptor control
Screen size: about 6,700 compounds; about 20 (0.3%) were called active.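 The calls were made as follows: active = mean percent activation in the counterscreen above 29.09%; inactive = the rest.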 The sample as a whole holds a higher share of actives than the screen did.
Just give me one of these, please: TRUE = active, FALSE = inactive

In [3]: df
Out[3]:
                                   compound  assignedclass
0  CCOC(=O)c1cccc(NC(=O)CCCOc2ccc(OC)cc2)c1          FALSE
1   O=C(CCc1ccccc1)Nc1cccc(C(=O)N2CCOCC2)c1          FALSE
2  O=C1CCC(CCNCCOc2ccccc2)N1CCc1ccccc1 (stereo not drawn)          FALSE
3                  Oc1ccc(Cn2cc[nH]c2=S)cc1          FALSE
4  CCN(CC)C(=O)C1CCCN(c2cccc(C(=O)NCCc3ccc(OC)cc3)n2)C1 (stereo not drawn)          FALSE

## Input // return assay outcome for COc1cccc(/C=C2/C(=O)NC(=O)N(c3ccccc3F)C2=O)c1
## Output FALSE

## Input // return assay outcome for C=CCN1C(=O)CC(C(=O)OC)C12CCN(C1CCN(C(=O)OCC)CC1)CC2 (stereo not drawn)
## Output FALSE

## Input // return assay outcome for COc1cc(Nc2ccnc(Nc3ccc(N4CCOCC4)cc3)n2)cc(OC)c1OC
## Output TRUE

## Input // return assay outcome for COc1nc(Nc2ccccc2)nc(-c2c(C)noc2C)n1
## Output FALSE

## Input // return assay outcome for COc1ccc(-c2nnc(SCCC#N)o2)cc1
## Output FALSE

## Input // return assay outcome for c1ccc(-c2ccc(OCCCNCCN3CCOCC3)cc2)cc1
## Output FALSE

====

measurementTarget: Glucose-dependent insulinotropic receptor (Homo sapiens) (UniProt Q8TDV5)
Sequence (Q8TDV5 whole entry, looked up): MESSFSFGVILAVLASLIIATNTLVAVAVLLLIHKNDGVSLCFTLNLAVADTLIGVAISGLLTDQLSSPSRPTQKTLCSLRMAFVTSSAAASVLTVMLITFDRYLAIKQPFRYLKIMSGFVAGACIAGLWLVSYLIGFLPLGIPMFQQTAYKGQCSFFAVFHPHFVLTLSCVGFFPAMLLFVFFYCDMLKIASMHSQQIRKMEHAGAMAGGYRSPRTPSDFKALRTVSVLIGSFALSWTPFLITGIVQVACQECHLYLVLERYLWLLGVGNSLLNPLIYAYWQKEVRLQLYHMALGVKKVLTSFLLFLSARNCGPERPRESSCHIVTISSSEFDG
assayRemarks: off-target GPR119 activation – cell-based, PathHunter beta-arrestin, luminescence, triplicate, counter-screen for GPR151 activator project (AID 1508611)
reportedConditions: GPR119 PathHunter beta-arrestin cells, 90 min, at 11.2 µM, stronger effect = higher value, 0 = compound-well median, 100 = enzyme-acceptor control
The campaign covered roughly 6,700 compounds. About 20 (0.3%) were called active. The full list was thinned out, with actives kept by preference.
assayEndpoint: activation (%)
Answers are plain numbers, in %.

Worked examples, 4 compounds total:
                                   compound  recordedmeasurement
0  CC(=O)Oc1cccc(N2C(=O)C3C4c5ccccc5C(C)(c5ccccc54)C3C2=O)c1 (stereo not given)                -7.48
1  C=CCN(c1ccc(C(=O)Nc2ccc(OCc3ccccc3)cc2)cc1)S(C)(=O)=O                -10.1
2  COc1cccc(/C=C(\C#N)c2nc3ccc(C)cc3[nH]2)c1OC                 17.6
3  CC(=O)Nc1ccc(NC(=O)c2ccc3nc(Br)sc3c2)cc1                -3.64

The compound CC(C)CNc1nc2c(c(=O)[nH]c(=O)n2C)n1CC(C)O (stereo not given) showed activation equal to 5.13

====

I'd appreciate it if you could supply activation values for the items below.
measurementTarget: Glucose-dependent insulinotropic receptor (Homo sapiens) (UniProt Q8TDV5)
assayRemarks: off-target GPR119 activation – cell-based, PathHunter beta-arrestin, luminescence, triplicate, counter-screen for GPR151 activator project (AID 1508611)
reportedConditions: GPR119 PathHunter beta-arrestin cells, 90 min, at 11.2 µM, stronger effect = higher value, 0 = compound-well median, 100 = enzyme-acceptor control
The campaign covered roughly 6,700 compounds. About 20 (0.3%) were called active. Shown is part of a subset that was picked to be rich in actives.
Give bare numbers, in %.

Could you tell me activation for each of these compounds? They are listed below.
1. COc1ccc(C2(C)NC(=O)N(CC(=O)Nc3ccc4ccccc4c3)C2=O)cc1 (stereo not given)
2. COc1cc(NC(=O)c2sc3ncnc(N4CCCCC4)c3c2C)cc(OC)c1OC
3. COc1ccc(N2C(=O)C(Cl)=C(Nc3ccc(C)cc3)C2=O)cc1
4. O=C(O)COc1ccc(N2C(=O)C(=O)/C(=C(\O)c3ccccc3)C2c2ccc(Cl)cc2Cl)cc1 (stereo not given)
5. COc1ccc(OC)c(NC(=O)CSc2nnc3[nH]c(=O)c(C)c(C)n23)c1
6. COc1cccc(C(=O)NC(=S)Nc2ccc(OC)cc2OC)c1
7. COc1ccc(C2=NN(C(=O)c3cc(OC)c(OC)c(OC)c3)C(c3ccc(Cl)cc3)C2)cc1OC (stereo not given)
8. CCOc1cc2c(cc1OCC)C(c1ccc3ccccc3c1)NCC2 (stereo not given)

## Output
[5.1, 0.56, 9.02, 1.15, 3.38, 5.05, 10.6, -1.89]

Could you tell me activation for each of these compounds? They are listed below.
1. COc1ccc([N+](=O)[O-])cc1NC(=O)C1CC(Cl)=CCC1C(=O)O (stereo not given)
2. CCc1ccc(-c2ccc(C3CCC(CC)CC3)cc2)nc1 (stereo not given)

## Output
[-0.8, -6.15]

====

I'd appreciate it if you could supply activation values for the items below.
measurementTarget: Glucose-dependent insulinotropic receptor (Homo sapiens)
assayRemarks: off-target GPR119 activation – cell-based, PathHunter beta-arrestin, luminescence, triplicate, counter-screen for GPR151 activator project (AID 1508611);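 also: counterscreen on off-target GPR119 to flag nonselective hits from the GPR151 activator screen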
reportedConditions: GPR119 PathHunter beta-arrestin cells, 90 min, at 11.2 µM, stronger effect = higher value, 0 = compound-well median, 100 = enzyme-acceptor control
Among all 6,700 compounds or so, about 20 (0.3%) were called active. The list comes from a sample in which actives are over-represented; it also holds close analogues and randomly drawn compounds.
Answers are plain numbers, in %.

Worked examples, 2 compounds total:
                            structuresmiles  outputunit  recordedmeasurement
0  CCOc1cc(C2C3=C(CCCC3=O)NC3=C2C(=O)CCC3)cc(Br)c1OCC           %                 8.25
1                     O=C(O)/C=C/c1ccccc1Cl           %                -5.81

Now let's try a different one.
The compound CC(=O)Nc1nc(C(=O)Nc2nc(-c3sc(C)nc3C)cs2)cs1 showed activation equal to 13.5

====

I'd appreciate it if you could supply activation values for the items below.
measurementTarget: Glucose-dependent insulinotropic receptor (Homo sapiens)
assayRemarks: off-target GPR119 activation – cell-based, PathHunter beta-arrestin, luminescence, triplicate, counter-screen for GPR151 activator project (AID 1508611);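 also: counterscreen on off-target GPR119 to flag nonselective hits from the GPR151 activator screen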
reportedConditions: GPR119 PathHunter beta-arrestin cells, 90 min, at 11.2 µM, stronger effect = higher value, 0 = compound-well median, 100 = enzyme-acceptor control
The campaign covered roughly 6,700 compounds. About 20 (0.3%) were called active. This excerpt belongs to a sample that is enriched for actives.

Could you tell me activation for each of these molecules? They are listed below.
1. COc1cccc(C2SCC(=O)N2c2cccc(C)c2)c1OC (centres undefined)
2. CCOc1ccc(NC(=O)COc2cccc(C)c2C)cc1
3. O=C(Nc1ccc2[nH]ncc2c1)N1CCCNCC1

## Output
1. 13.2% (inactive)
2. 6% (inactive)
3. 3.8% (inactive)

Could you tell me activation for each of these molecules? They are listed below.
1. COCCNC(=O)CSc1nccn1Cc1ccco1
2. COc1ccc(C=C(C#N)C#N)c(CSc2ccccn2)c1

## Output
1. 5.14% (inactive)
2. 14.8% (inactive)

Could you tell me activation for each of these molecules? They are listed below.
1. Cc1ccc(NC(=O)CSc2nnc(-c3ccc(N)cc3)n2C)cc1Cl
2. c1cncc(Nc2nc(NC3CC3)c3ncn(C4CCCCC4)c3n2)c1

## Output
["5.44% (inactive)", "-7.65% (inactive)"]

Could you tell me activation for each of these molecules? They are listed below.
1. CC(/C=N\NC(=O)CSc1nc(C)cc(C)n1)=C\c1ccccc1
2. COc1ccc(-c2cc(N)n(S(=O)(=O)c3ccccc3)n2)c(OC)c1

## Output
1: -12.7% (inactive); 2: -9.92% (inactive)

====

measurementTarget: Glucose-dependent insulinotropic receptor (Homo sapiens)
assayRemarks: off-target GPR119 activation – cell-based, PathHunter beta-arrestin, luminescence, triplicate, counter-screen for GPR151 activator project (AID 1508611);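 also: counterscreen on off-target GPR119 to flag nonselective hits from the GPR151 activator screen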
reportedConditions: GPR119 PathHunter beta-arrestin cells, 90 min, at 11.2 µM, stronger effect = higher value, 0 = compound-well median, 100 = enzyme-acceptor control
The campaign covered roughly 6,700 compounds. About 20 (0.3%) were called active. The list comes from a sample in which actives are over-represented; it also holds close analogues and randomly drawn compounds.
I'd appreciate it if you could supply activation values for the items below.
Give bare numbers, in %.

Worked examples, 6 compounds total:
>>> print(df.to_string())
                                   compound  recordedmeasurement
0  O=C(/C=C/Nc1ccccc1NS(=O)(=O)c1ccc([N+](=O)[O-])cc1)c1ccco1                -7.75
1  CC(C)(C)OC(=O)N1CCC[C@H](Cn2cc(C(=O)O)nn2)C1                    2
2  CC(C)CCSc1nc2c(c(=O)n1Cc1ccco1)C1(CCCCC1)Cc1ccccc1-2                 -4.2
3  CC12CCC(C(=O)Nc3ncc(Cl)cc3Cl)(CC1=O)C2(C)C (configuration not stated)                -5.44
4  O=C(C(Cc1ccccc1)N1C(=O)C2C3c4ccccc4C(c4ccccc43)C2C1=O)N1CCOCC1 (configuration not stated)                 7.72
5  Cc1nc2cc(C(=O)NCc3ccc4c(c3)OCO4)ccc2n1-c1ccc(OCc2ccccc2)cc1                -11.3

Could you tell me activation for each of these compounds? They are listed below.
1. COc1cc(/C=N/N=C2/NC(=O)CS2)ccc1OC(=O)c1ccccc1C
2. COc1cc2nc(-c3cccc(C(C)=O)c3)nc(Nc3ccc(N4CCOCC4)cc3)c2cc1OC
3. O=C(CSc1ccc(F)cc1)Nc1cccc2ccccc12
4. O=C(CC12CC3CC(CC(C3)C1)C2)Nc1ccc2oc(=O)ccc2c1
5. O=C(CCn1cnc2c(cnn2-c2ccc(F)cc2)c1=O)NCCC1=CCCCC1
6. Cc1ccc(S(=O)(=O)Cn2nnnc2CN2CCN(c3ccccc3F)CC2)cc1

## Output
[-7.49, 1.25, -0.98, -8.76, 1.14, 8.39]

Could you tell me activation for each of these compounds? They are listed below.
1. CC(C)c1ccc(Nc2nccn3c(-c4cccc(CO)c4)cnc23)cc1
2. CS(=O)(=O)N(CC(=O)Nc1ccc(F)cc1F)c1ccc(F)cc1
3. CCOC(=O)C1=C(CC)OC(N)=C(C#N)C1c1ccc(C(F)(F)F)cc1 (configuration not stated)
4. CCN(CC)c1nc(Nc2ccccc2)nc(Nc2ccccc2)n1
5. Cc1nc(-c2cccc(NC(=O)C3CC(=O)c4ccccc43)c2)cs1 (configuration not stated)
6. Cc1[nH][nH]c(=O)c1C(c1ccc(-c2ccc(F)cc2[N+](=O)[O-])o1)c1c(C)[nH][nH]c1=O
7. Cn1c(=O)c2c(nc(SCC(=O)O)n2Cc2ccc(F)cc2)n(C)c1=O
8. O=c1[nH]c(=S)[nH]c(O)c1C=Nc1ccc(F)c(Cl)c1

## Output
15.7
-2.79
-9.1
5.68
4.74
9
-2.28
5.32

Could you tell me activation for each of these compounds? They are listed below.
1. Brc1cnc(NC2CCCCC2)nc1
2. CCOC(=O)c1sc(NC(=O)CSc2ncccn2)c(C#N)c1C
3. CCCCc1ccc(N=Cc2nc(-c3cccc4ccccc34)oc2O)cc1
4. COc1ccc(Br)cc1C(=O)NCC1COc2ccccc2O1 (configuration not stated)
5. CCN(CC)c1nc(Nc2cc(OC)c(OC)c(OC)c2)nc(N2CCOCC2)n1

## Output
4.03
2.97
-7.98
-9.64
-4.38

Could you tell me activation for each of these compounds? They are listed below.
1. CN(Cc1nc(-c2ccc3c(c2)OCO3)no1)C1CCCc2ccccc21 (configuration not stated)
2. O=C(c1cc([N+](=O)[O-])ccc1NC1CCCCC1)N1CCOCC1
3. CCN1CCCC1CNc1nc(=S)[nH]c2ccccc12 (configuration not stated)
4. COc1ccc(OC)c(NC(=O)CN(c2cccc(C)c2C)S(C)(=O)=O)c1
5. O=C(CCc1nnc(CCCCc2ccccc2)o1)N1CCC(N2CCSCC2)CC1
6. CCC1C(=O)NCCN1Cc1ccc2c(c1)CN(Cc1c[nH]c3ccccc13)CCO2 (configuration not stated)
7. O=C(NCc1nnc(SCC(=O)N2N=C(c3cccs3)CC2c2ccc(F)cc2)n1Cc1ccccc1)c1cccc(F)c1 (configuration not stated)

## Output
0.92
-18.9
-5.74
-9.68
0.58
-4.8
-10.8
